// provenance: PubChem BioAssay

Reported inhibition of aggregation is given for each of the following molecules.
Experiment: reduction of polyQ htt aggregates in cells – imaging, exon1htt(103Q)mCFP cells, high-content imaging, primary screen (AID 483);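 also: compound exposure lasted 3 days before fixation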
Settings: exon1htt(103Q)mCFP cell line, aggregate imaging, at 2 µM; stronger effect = higher value

molecule	unit.descriptor	inhibition of aggregation
Cn1c(=O)c2c(nc(SCc3nn[nH]n3)n2Cc2ccccc2F)n(C)c1=O	%	13.9
CC1(C)Cc2nc3oc4c(N(CCO)Cc5ccccc5)ncnc4c3cc2CO1	%	-1.1
COC(=O)Nc1ccc(S(=O)(=O)N(C)CC(F)(F)C(F)F)cc1	%	-5.6
COC(=O)c1cn(-c2ccccc2)nc1C(=O)OC	%	-0.8
CN(C)CCOC(C)(c1ccccc1)c1ccccn1 (stereo unspecified)	%	21.5
CC1(C)Cc2noc(N)c2C(C)(C)N1OC(=O)c1ccco1	%	21.5
O=C(Cn1cccc1)N1CCN(C(c2ccccc2)c2ccccc2)CC1	%	-11.9
CCN(CC)CC(=O)Nc1ccc(-c2nc3cc(NC(=O)CN(CC)CC)ccc3o2)cc1	%	-13.9
COCCNC(=O)c1ccc2c(c1)nc(C)n2-c1cccc(F)c1	%	-2
O=C(Cc1c(O)c2ccccc2[nH]c1=O)NCc1ccc(F)cc1	%	18.1
COc1ccc2c(c1)c1c(n2C(C)=O)C(OC(C)=O)=NCC1	%	-12.8

----------
Experiment: loss of swimming-algae plug formation – whole organism, Chlamydomonas reinhardtii, WT vs cilia-less mutant, absorbance, 96-well, primary screen (AID 463189);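 also: 0% = wild type cc124 cells in DMSO and 100% = ciliumless bld1 mutant cells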
Conditions: Chlamydomonas reinhardtii gravitaxis, OD600 absorbance, 2 days; at 10 µM; stronger effect = higher value

compound	inhibition / %
CCCCCCCCCCCCCCCC(=O)OC(CC(=O)O)C[N+](C)(C)C (configuration not stated)	2.15
C=CCn1c(=O)c2c(nc(-c3ccc(S(=O)(=O)O)cc3)n2C)n(C)c1=O	4.78
Cn1cc(C(=O)OCC2CCN(CCNS(C)(=O)=O)CC2)c2ccccc21	6.02
Oc1ccc(-c2nc(-c3ccc(F)cc3)c(-c3ccncc3)[nH]2)cc1	7.36
COc1cc2c(CCNC(C)=O)c[nH]c2cc1O	-0.037
OC[C@H]1O[C@@H](n2cnc3c(NC4CCCC4)ncnc32)C(O)[C@H]1O (some centres not stated)	2.66
c1ccc2c(c1)nc(CN1CCOCC1)n1c3ccccc3nc21	-4.79
CC#CCOC(=O)c1c(C)nc2sc3c(c2c1N)CCC(O)C3 (configuration not stated)	11.7
OC[C@H]1O[C@@H](n2cnc3c(NC4CCCCC4)ncnc32)[C@H](O)[C@@H]1O	4.21
CN(C)c1ccc(/C=C2\C(=O)Nc3ccccc32)cc1	4.05
N[C@H](CO)C(=O)O	3.16
NC(=S)NCCCC(N)C(=O)O (configuration not stated)	0.102

----------
Assay: inhibitors of TNFa-induced NFkB p65 translocation, primary screen, imaging, HUVEC, MLSMR starter and 10KST1 sets (AID 438);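 also: compound added about 3h40 before a 20 min TNFalpha stimulation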
Conditions: HUVEC TNFa-induced p65 nuclear translocation; measured here: nuclei count (cytotoxicity indicator), at 2.08 µM
Where cell count equals or exceeds 400, the correct label is 1; where it does not, the label is 0.

compound	category
COc1cccc(N2CCN(c3c4c(nc5ncnn35)CCC4)CC2)c1	1
O=S(=O)(NCCc1ccccc1F)c1cccc(S(=O)(=O)N2CCOCC2)c1	1
CSc1ccccc1C(=O)NC1CC2CCC1C2 (configuration not stated)	0
O=C1CCc2nc3sc4c(c3c(=O)n2N1)CCCC4	1
CCCCn1c(SCC(=O)c2ccc3c(c2)OCCO3)nnc1-c1ccco1	1
COc1ccc2nc(NC(=O)C(NS(=O)(=O)c3cccs3)C(C)C)sc2c1 (configuration not stated)	0
CN1C(=O)C2(NCCc3c2[nH]c2ccccc32)c2ccccc21 (configuration not stated)	1
CN(Cc1cccs1)c1ncnc2sccc12	1
Cc1onc(-c2ccccc2)c1C(=O)Nc1ccnn1C1CCCCC1	0
CCOC(=O)c1c(NC(=O)OC)sc(C(=O)N(C)C)c1C	0
OCc1nc2ccccc2n1CC(O)Cn1ccc2ccccc21 (configuration not stated)	1
